system: Colletotrichum lagenaria; assay: Fungicidal activity against Colletotrichum lagenaria at 50 ug/ml by growth inhibition method; type: functional; conditions: read-out: GI
Exercise: state measured inhibition of growth at 50 µg/mL for each of the compounds provided.

compound | experimental target | inhibition of growth at 50 µg/mL
Cc1ccc(N(C(=O)c2nnsc2C)C(C(=O)NC(C)C)c2ccccc2C(F)(F)F)cc1Cl (centres undefined) | Colletotrichum lagenaria | 17%

Record inhibition of growth at 50 µg/mL per entry; entries follow.
1. Cc1ccc(N(C(=O)c2nnsc2C)C(C(=O)NC2CCCCC2)c2ccc([N+](=O)[O-])cc2)cc1F (centres undefined)
2. Cc1ccc(N(C(=O)c2nnsc2C)C(C(=O)NC(C)C)c2ccccc2[N+](=O)[O-])cc1F (centres undefined)
3. Cc1ccc(N(C(=O)c2nnsc2C)C(C(=O)NC2CCCCC2)c2ccc(C(F)(F)F)cc2)cc1F (centres undefined)
4. Cc1ccc(N(C(=O)c2nnsc2C)C(C(=O)NC(C)C)c2ccccc2C)cc1Cl (centres undefined)
5. Cc1ccc(N(C(=O)c2nnsc2C)C(C(=O)NC(C)C)c2ccccc2F)cc1F (centres undefined)

Result:
1: 14%; 2: 14%; 3: 14%; 4: 10%; 5: 14%

Quick one: give me inhibition of growth at 50 µg/mL for each item below, same order please.
1. Cc1ccc(N(C(=O)c2nnsc2C)C(C(=O)NC(C)C)c2ccc(C(F)(F)F)cc2)cc1F (centres undefined)
2. Cc1ccc(N(C(=O)c2nnsc2C)C(C(=O)NC(C)C)c2cccc(F)c2)cc1Cl (centres undefined)

Result:
0%
10%

// sample Cc1ccc(N(C(=O)c2nnsc2C)C(C(=O)NC(C)C)c2cccc(C(F)(F)F)c2)cc1Cl (centres undefined) , its inhibition of growth at 50 µg/mL was 17%

* * *

Field: inhibition of growth at 50 µg/mL. Provide a value for each of the molecules that follow.
tested on: Rhizoctonia solani; assay: Fungicidal activity against Rhizoctonia solani at 50 ug/ml by growth inhibition method; type: functional; conditions: read-out: GI
Answers are plain numbers, in %.

molecule | experimental target | units symbol | inhibition of growth at 50 µg/mL
Cc1ccc(N(C(=O)c2nnsc2C)C(C(=O)NC(C)C)c2ccc(C(F)(F)F)cc2)cc1F (centres undefined) | Rhizoctonia solani | % | 15
Cc1ccc(N(C(=O)c2nnsc2C)C(C(=O)NC2CCCCC2)c2ccc([N+](=O)[O-])cc2)cc1F (centres undefined) | Rhizoctonia solani | % | 2
Cc1ccc(N(C(=O)c2nnsc2C)C(C(=O)NC2CCCCC2)c2ccccc2[N+](=O)[O-])cc1F (centres undefined) | Rhizoctonia solani | % | 9
Cc1ccc(N(C(=O)c2nnsc2C)C(C(=O)NC2CCCCC2)c2ccccc2C)cc1F (centres undefined) | Rhizoctonia solani | % | 22
Cc1ccc(N(C(=O)c2nnsc2C)C(C(=O)NC(C)C)c2ccccc2[N+](=O)[O-])cc1F (centres undefined) | Rhizoctonia solani | % | 2
Cc1ccc(N(C(=O)c2nnsc2C)C(C(=O)NC2CCCCC2)c2ccccc2C(F)(F)F)cc1F (centres undefined) | Rhizoctonia solani | % | 4
Cc1ccc(N(C(=O)c2nnsc2C)C(C(=O)NC2CCCCC2)c2ccccc2F)cc1F (centres undefined) | Rhizoctonia solani | % | 59
Cc1ccc(N(C(=O)c2nnsc2C)C(C(=O)NC2CCCCC2)c2cccc(C(F)(F)F)c2)cc1F (centres undefined) | Rhizoctonia solani | % | 22

Entry Cc1ccc(N(C(=O)c2nnsc2C)C(C(=O)NC(C)C)c2ccc(O)cc2)cc1F (centres undefined) — recorded inhibition of growth at 50 µg/mL = 0

* * *

system: Rhizoctonia solani; assay: Fungicidal activity against Rhizoctonia solani at 50 ug/ml by growth inhibition method; type: functional; details: read-out: GI
Assignment: determine reported inhibition of growth at 50 µg/mL for the given compounds.
One number for each entry, in %.

Recorded results for 4 compounds are shown here.
compound | units symbol | inhibition of growth at 50 µg/mL
Cc1ccc(N(C(=O)c2nnsc2C)C(C(=O)NC(C)C)c2cccc(F)c2)cc1F (stereo not given) | % | 43
Cc1ccc(N(C(=O)c2nnsc2C)C(C(=O)NC(C)C)c2ccc([N+](=O)[O-])cc2)cc1F (stereo not given) | % | 17
Cc1ccc(N(C(=O)c2nnsc2C)C(C(=O)NC(C)C)c2ccccc2Cl)cc1F (stereo not given) | % | 0
Cc1ccc(N(C(=O)c2nnsc2C)C(C(=O)NC(C)C)c2ccccc2C)cc1F (stereo not given) | % | 22

Okay, now this compound:
For Cc1cccc(C(C(=O)NC2CCCCC2)N(C(=O)c2nnsc2C)c2ccc(C)c(F)c2)c1 (stereo not given) the compound record lists inhibition of growth at 50 µg/mL as 37

* * *

tested on: Rhizoctonia solani; assay: Fungicidal activity against Rhizoctonia solani at 50 ug/ml by growth inhibition method; assay type: functional; settings: read-out: GI
quantity name: inhibition of growth at 50 µg/mL (%)
Give bare numbers, in %.

Some entries whose results are on file:
compound | inhibition of growth at 50 µg/mL (%)
Cc1ccc(N(C(=O)c2nnsc2C)C(C(=O)NC2CCCCC2)c2cccc([N+](=O)[O-])c2)cc1F (stereo not given) | 4
Cc1ccc(N(C(=O)c2nnsc2C)C(C(=O)NC2CCCCC2)c2cccc(F)c2)cc1F (stereo not given) | 2
Cc1ccc(NC(=O)c2snnc2C)cc1Cl | 1
Cc1ccc(N(C(=O)c2nnsc2C)C(C(=O)NC2CCCCC2)c2cccc(O)c2)cc1F (stereo not given) | 30
Cc1ccc(N(C(=O)c2nnsc2C)C(C(=O)NC(C)C)c2ccccc2)cc1F (stereo not given) | 2
Cc1cccc(C(C(=O)NC(C)C)N(C(=O)c2nnsc2C)c2ccc(C)c(F)c2)c1 (stereo not given) | 0

Hi, could you look up inhibition of growth at 50 µg/mL for each item in my list?
1. Cc1ccc(N(C(=O)c2nnsc2C)C(C(=O)NC2CCCCC2)c2ccc(O)cc2)cc1F (stereo not given)
2. Cc1ccc(N(C(=O)c2nnsc2C)C(C(=O)NC(C)C)c2ccccc2C(F)(F)F)cc1F (stereo not given)
3. Cc1ccc(N(C(=O)c2nnsc2C)C(C(=O)NC(C)C)c2cccc(O)c2)cc1F (stereo not given)

Result:
1. 22
2. 17
3. 2

Items follow; give inhibition of growth at 50 µg/mL for each.
1. Cc1ccc(N(C(=O)c2nnsc2C)C(C(=O)NC(C)C)c2cccc([N+](=O)[O-])c2)cc1F (stereo not given)
2. Cc1ccc(N(C(=O)c2nnsc2C)C(C(=O)NC2CCCCC2)c2ccccc2Cl)cc1F (stereo not given)
3. Cc1ccc(N(C(=O)c2nnsc2C)C(C(=O)NC(C)C)c2ccccc2O)cc1F (stereo not given)
4. Cc1ccc(N(C(=O)c2nnsc2C)C(C(=O)NC(C)C)c2ccccc2F)cc1F (stereo not given)

Result:
15
22
26
15

Provide reported inhibition of growth at 50 µg/mL for each item, in the same order as listed.
1. Cc1ccc(N(C(=O)c2nnsc2C)C(C(=O)NC2CCCCC2)c2ccc(Cl)cc2)cc1F (stereo not given)
2. Cc1ccc(N(C(=O)c2nnsc2C)C(C(=O)NC2CCCCC2)c2ccc(F)cc2)cc1F (stereo not given)

Result:
22
2

* * *

tested on: Colletotrichum lagenaria; experiment: Fungicidal activity against Colletotrichum lagenaria at 50 ug/ml by growth inhibition method; type: functional; details: read-out: GI
Rule: inhibition of growth at 50 µg/mL under 10% gives 0 (no), otherwise 1 (yes).

compound | category label
Cc1ccc(N(C(=O)c2nnsc2C)C(C(=O)NC(C)C)c2cccc(O)c2)cc1F (stereo not given) | 1 (yes)
Cc1ccc(N(C(=O)c2nnsc2C)C(C(=O)NC(C)C)c2ccccc2C)cc1F (stereo not given) | 1 (yes)

Q: // inclusive: inhibition of growth at 50 µg/mL at least 10%? input: Cc1ccc(N(C(=O)c2nnsc2C)C(C(=O)NC(C)C)c2ccccc2C(F)(F)F)cc1F (stereo not given)
Result: 1 (yes)

Q: Determine whether this compound has inhibition of growth at 50 µg/mL no lower than 10%: Cc1ccc(N(C(=O)c2nnsc2C)C(C(=O)NC2CCCCC2)c2ccc(Cl)cc2)cc1F (stereo not given)
Result: 0 (no)

* * *

system: Rhizoctonia solani; assay: Fungicidal activity against Rhizoctonia solani at 50 ug/ml by growth inhibition method; type: functional; conditions: read-out: GI
For each of the molecules below, state its inhibition of growth at 50 µg/mL.

Look over these answered cases.
molecule | inhibition of growth at 50 µg/mL
Cc1ccc(N(C(=O)c2nnsc2C)C(C(=O)NC2CCCCC2)c2cccc(Cl)c2)cc1F (centres undefined) | 39%
Cc1ccc(N(C(=O)c2nnsc2C)C(C(=O)NC2CCCCC2)c2ccccc2)cc1F (centres undefined) | 0%
Cc1ccc(N(C(=O)c2nnsc2C)C(C(=O)NC(C)C)c2cccc(C(F)(F)F)c2)cc1F (centres undefined) | 22%
Cc1ccc(N(C(=O)c2nnsc2C)C(C(=O)NC(C)C)c2cccc(Cl)c2)cc1F (centres undefined) | 22%
Cc1ccc(C(C(=O)NC(C)C)N(C(=O)c2nnsc2C)c2ccc(C)c(F)c2)cc1 (centres undefined) | 37%

Dear colleague, could you please provide inhibition of growth at 50 µg/mL for the molecules listed below?
1. Cc1ccc(N(C(=O)c2nnsc2C)C(C(=O)NC(C)C)c2ccc(F)cc2)cc1F (centres undefined)
2. Cc1ccc(N(C(=O)c2nnsc2C)C(C(=O)NC2CCCCC2)c2ccc(C(F)(F)F)cc2)cc1F (centres undefined)
3. Cc1ccc(N(C(=O)c2nnsc2C)C(C(=O)NC(C)C)c2ccc(Cl)cc2)cc1F (centres undefined)
4. Cc1ccc(C(C(=O)NC2CCCCC2)N(C(=O)c2nnsc2C)c2ccc(C)c(F)c2)cc1 (centres undefined)

Result:
["22%", "22%", "15%", "2%"]
